Recorded measurements of growth, one per entry
- Tested on: M14 melanoma
- Method: NCI-60 one-dose screen, 48 h (100 = growth as untreated, 0 = no growth, -100 = all killed)
- Conditions: 10 µM unless noted
Compounds without any hit were thinned out: in the full panel of roughly 83,000, 20% have a hit. The source made the active and inactive calls. How the source made its calls: active means growth percent below 10; inactive means the rest.

Sample records with growth:
• COc1cc(C=Nc2cc(Cl)cc(Cl)c2)ccc1N(CCCl)CCCl = 92.2% (inactive)
• C[C@]12CCc3sc(NCCc4ccccc4)nc3C1=CC[C@@H]1[C@@H]2CC[C@]2(C)C(=O)CC[C@@H]12 = 85.4% (inactive)
• CC(=O)Nc1ccc(NC(=O)c2ccc([As](O)O)cc2)cc1 = 101% (inactive)
• CC(=O)Nc1nc2c(s1)CC[C@@]1(C)C2=CC[C@H]2[C@@H]3CC[C@H](O)[C@@]3(C)CC[C@@H]21 = 36% (inactive)

Turning now to a further record.
Incoming: State the recorded growth for this entry: `O=[N+]([O-])c1cnc[nH]1`
Outgoing: 119% (inactive)

* * *

- System: SK-MEL-28 melanoma
- Method: NCI-60 one-dose screen, 48 h
- Conditions: 10 µM unless noted
- Protocol: Growth inhibition of the SK-MEL-28 human tumor cell line is measured as a screen for anti-cancer activity. Cells are grown in 96 well plates and exposed to the test compound for 48 hours. Compounds are tested at a single concentration, which is 10^-5 M for most compounds. The reported endpoint is percent growth (GI% or GIPRCNT), where numbers from 0 - 100% represent growth inhibition, and numbers from -100% - 0 represent cell death. For example, a value of 40 represents 60% growth inhibition. […]
Compounds without any hit were thinned out: in the full panel of roughly 83,000, 20% have a hit. Activity calls are given as the source filed them. Rule for the calls: active = growth percent below 10; inactive = the rest.
Hello, when you answer, please use one of the following outcomes: t = active, f = inactive

Consider the following illustrative entries.
• CC(=O)[C@H]1CC[C@H]2[C@@H]3CC[C@H]4C[C@H](N)CC[C@]4(C)[C@H]3CC[C@]12C = f
• CCN1C(=O)C(=C/C=C/c2ccccc2)C(=O)N(CC)C1=O = f
• CCCC(C)C1(CC)C(=O)NC(=O)N(C)C1=O (stereo not given) = f
• C/C(=C\c1ccn(-c2ccc(N)c(F)c2)n1)[C@@H]1C[C@@H]2O[C@]2(C)CCC[C@H](C)[C@H](O)[C@@H](C)C(=O)C(C)(C)[C@@H](O)CC(=O)O1 = f

Incoming: # lookup: test call for `CNC(=O)Oc1ccc(C(C)(C)C)cc1OC(=O)NC`
Outgoing: f

Incoming: Tell me the recorded outcome of this test for `CCOP(=O)(Cc1ccc(C#N)cc1)OCC` .
Outgoing: f

Incoming: Hi team, can someone confirm the assay call for `O=C(Nc1ccc(Br)cc1)c1cc(Br)cc(Br)c1O` ?
Outgoing: f

Incoming: Per the assay record, what outcome was assigned to CCCCCCCCCCCCCCCCCC1OC[C@@H](COC(=O)O[C@@H](C(=O)O[C@H]2C[C@@]3(O)[C@@H](OC(=O)c4ccccc4)[C@@H]4[C@]5(OC(C)=O)CO[C@@H]5C[C@H](O)[C@@]4(C)C(=O)[C@H](OC(C)=O)C(=C2C)C3(C)C)[C@@H](NC(=O)c2ccccc2)c2ccccc2)O1 (stereo not given in full) ?
Outgoing: f

Incoming: For CC1(C)CN1P(=O)(N1CC1(C)C)N1CC1(C)C (stereo not given) , which call appears in the assay record?
Outgoing: f

Incoming: Please indicate how the test categorized `C=CCCCCCCCCC(=O)[O-].C=CCCCCCCCCC(=O)[O-].[Zn+2]` .
Outgoing: f

Incoming: Assay outcome for CCOC(=O)CCC(NC(=O)C(Cc1ccc(N(CCCl)CCCl)cc1)NC=O)C(=O)OCC (stereo not given) : what was it?
Outgoing: t

Incoming: Record request — test call for C/C=C(\C)C(=O)O[C@@H]1C(O)[C@H]2OC(COC(=O)CCC(=O)CCCCCC[C@H](CCCCC)O[C@@H]3OC(C)[C@H](OC(C)=O)C(O)[C@H]3O2)[C@H]1OC(=O)/C=C/c1ccccc1 (stereo not given in full)
Outgoing: f

Incoming: How did this test come out for `c1ccc(CSC(c2ccccc2)c2ccccc2)cc1` ?
Outgoing: f

Incoming: Hey, what did the test say about CC(C)COC(C[N+](=O)[O-])C(Cl)(Cl)Cl (stereo not given) ?
Outgoing: f

Incoming: Check the results log: what was the call for `O=C1NC(=O)C(=Cc2cccn2CCCCCn2c3ccccc3c(=O)c3ccccc32)C(=O)N1` ?
Outgoing: f

Incoming: Status in this test for `O=C(O)c1c(Cl)n(Cc2ccc(O)cc2)c2ccc(O)cc12` ?
Outgoing: f

Incoming: Any idea what this test logged for `COc1ccc2c(c1)c(-c1nc(-c3cn(C)c4ncccc34)cs1)cn2CCCCN1CCCCC1` ?
Outgoing: t

Incoming: # fetch the recorded call for Clc1ccc(COC(Cn2ccnc2)c2ccc(Cl)cc2Cl)cc1 (stereo not given) here
Outgoing: f
